Measured values drawn from patent US20090143441A1 for this set.

# measured on: PPARγ (Homo sapiens, UniProt P37231)
# Construct: purchased Invitrogen Corporation, Carlsbad, Calif
# protocol: Commercial PPARγ binding assay (Invitrogen, PPAR-LBD/Fluormone PPAR Green complex)
# test context: compound at .1 μM; average (SEM) of three experiments in quadruplicate
property label: PPARγ ligand binding (Fluormone displacement signal)

Query string: Which value of PPARγ ligand binding (Fluormone displacement signal) has been reported for CCc1ccc(C(=CCO)COc2ccc(CC3SC(=O)NC3=O)cc2)nc1 (stereo not shown) [Compound 13] in the records?
Result string: 244 (9)

Query string: Which value of PPARγ ligand binding (Fluormone displacement signal) has been reported for CCc1ccc([C@@H](O)COc2ccc(CC3SC(=O)NC3=O)cc2)nc1 (stereo partly shown) [Compound 2] in the records?
Result string: 231 (15)

Query string: Which value of PPARγ ligand binding (Fluormone displacement signal) has been reported for CCc1ccc(CCOc2ccc(CC3(C)SC(=O)NC3=O)cc2)nc1 (stereo not shown) [Compound 6] in the records?
Result string: 246 (7)

Query string: Which value of PPARγ ligand binding (Fluormone displacement signal) has been reported for CCc1ccc(C(=CC(=O)OC)COc2ccc(CC3SC(=O)NC3=O)cc2)nc1 (stereo not shown) [Compound 11] in the records?
Result string: 230 (12)

Query string: Which value of PPARγ ligand binding (Fluormone displacement signal) has been reported for CCc1ccc(C(COc2ccc(CC3SC(=O)NC3=O)cc2)CC(=O)OC)nc1 (stereo not shown) [Compound 12] in the records?
Result string: 243 (3)

Query string: Which value of PPARγ ligand binding (Fluormone displacement signal) has been reported for CCc1ccc(CCOc2ccc(CC3(C)SC(=O)NC3=O)cc2)nc1 (stereo not shown) [Compound 7] in the records?
Result string: 249 (9)

Query string: Which value of PPARγ ligand binding (Fluormone displacement signal) has been reported for CCc1ccc(C(O)COc2ccc(CC3(C)SC(=O)NC3=O)cc2)nc1 (stereo not shown) [Compound 5] in the records?
Result string: 235 (8)

====

For each entry below, report its Activation of PPARγ value.
# measured on: PPARγ (Homo sapiens)
# Construct: purchased Invitrogen Corporation, Carlsbad, Calif
# Sequence (P37231 238-503 limits assumed): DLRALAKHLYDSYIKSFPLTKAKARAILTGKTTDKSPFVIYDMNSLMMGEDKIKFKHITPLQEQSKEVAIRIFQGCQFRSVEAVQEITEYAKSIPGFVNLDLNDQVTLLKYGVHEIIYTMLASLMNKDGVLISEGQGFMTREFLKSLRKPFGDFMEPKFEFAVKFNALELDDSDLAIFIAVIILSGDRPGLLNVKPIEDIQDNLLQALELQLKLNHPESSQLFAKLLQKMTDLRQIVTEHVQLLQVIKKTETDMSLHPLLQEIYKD
# protocol: Commercial PPARγ binding assay (Invitrogen, PPAR-LBD/Fluormone PPAR Green complex)
# test context: compound at .3 μM; average (SEM) of three experiments in quadruplicate

Query string: Which value of Activation of PPARγ has been reported for CCc1ccc(CCOc2ccc(CC3(C)SC(=O)NC3=O)cc2)nc1 (stereo not drawn) [Compound 7] in the records?
Result string: 246 (5)

Query string: Which value of Activation of PPARγ has been reported for CCc1ccc([C@H](O)COc2ccc(CC3(C)SC(=O)NC3=O)cc2)nc1 (stereo partly drawn) in the records?
Result string: 237 (4)

Query string: Which value of Activation of PPARγ has been reported for CCc1ccc([C@@H](O)COc2ccc(CC3(C)SC(=O)NC3=O)cc2)nc1 (stereo partly drawn) in the records?
Result string: 243 (5)

Query string: Which value of Activation of PPARγ has been reported for CCc1ccc(C(COc2ccc(CC3SC(=O)NC3=O)cc2)CC(=O)OC)nc1 (stereo not drawn) in the records?
Result string: 222 (4)

Query string: Which value of Activation of PPARγ has been reported for CCc1ccc(C(=O)COc2ccc(CC3(C)SC(=O)NC3=O)cc2)nc1 (stereo not drawn) in the records?
Result string: 239 (2)

Query string: Which value of Activation of PPARγ has been reported for CCc1ccc(CCOc2ccc(CC3(C)SC(=O)NC3=O)cc2)nc1 (stereo not drawn) [Compound 4] in the records?
Result string: 230 (14)
